targetOrTestSystem: Gastrin/cholecystokinin type B receptor (Rattus norvegicus, UniProt P30553)
Sequence (P30553 whole entry): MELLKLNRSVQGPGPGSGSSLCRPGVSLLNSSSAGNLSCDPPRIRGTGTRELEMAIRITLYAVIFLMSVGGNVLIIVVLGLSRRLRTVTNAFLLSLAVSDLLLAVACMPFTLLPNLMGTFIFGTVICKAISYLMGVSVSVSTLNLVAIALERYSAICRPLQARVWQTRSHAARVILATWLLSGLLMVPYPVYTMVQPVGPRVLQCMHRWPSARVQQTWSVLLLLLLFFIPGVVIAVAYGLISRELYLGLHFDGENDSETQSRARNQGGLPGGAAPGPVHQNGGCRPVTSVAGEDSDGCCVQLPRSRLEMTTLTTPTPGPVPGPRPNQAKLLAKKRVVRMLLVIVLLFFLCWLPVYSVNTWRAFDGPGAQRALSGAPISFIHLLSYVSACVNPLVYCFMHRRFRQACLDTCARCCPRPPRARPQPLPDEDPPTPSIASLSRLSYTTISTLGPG
We begin with a simple list: items and their reported IC50.

Consider the following illustrative entries.
CC(C)(C)OC(=O)N[C@H](Cc1c[nH]c2ccccc12)C(=O)N[C@H]1CC[C@@H]2SC[C@@H](C(=O)N[C@@H](Cc3ccccc3)C(N)=O)N2C1=O
> 10 µM
CC(C)(C)OC(=O)N[C@@H](Cc1c[nH]c2ccccc12)C(=O)N[C@@H]1C[C@H]2c3[nH]c4ccccc4c3C[C@H](C(=O)N[C@H](Cc3ccccc3)C(N)=O)N2C1=O
> 10 µM

Item: CC(C)(C)OC(=O)N[C@H](Cc1c[nH]c2ccccc12)C(=O)N[C@@H]1C[C@H]2c3[nH]c4ccccc4c3C[C@H](C(=O)N[C@@H](Cc3ccccc3)C(N)=O)N2C1=O | IC50: > 10 µM
